Molecular target: SMARCA2 (Homo sapiens)
Sequence (P51531 whole entry): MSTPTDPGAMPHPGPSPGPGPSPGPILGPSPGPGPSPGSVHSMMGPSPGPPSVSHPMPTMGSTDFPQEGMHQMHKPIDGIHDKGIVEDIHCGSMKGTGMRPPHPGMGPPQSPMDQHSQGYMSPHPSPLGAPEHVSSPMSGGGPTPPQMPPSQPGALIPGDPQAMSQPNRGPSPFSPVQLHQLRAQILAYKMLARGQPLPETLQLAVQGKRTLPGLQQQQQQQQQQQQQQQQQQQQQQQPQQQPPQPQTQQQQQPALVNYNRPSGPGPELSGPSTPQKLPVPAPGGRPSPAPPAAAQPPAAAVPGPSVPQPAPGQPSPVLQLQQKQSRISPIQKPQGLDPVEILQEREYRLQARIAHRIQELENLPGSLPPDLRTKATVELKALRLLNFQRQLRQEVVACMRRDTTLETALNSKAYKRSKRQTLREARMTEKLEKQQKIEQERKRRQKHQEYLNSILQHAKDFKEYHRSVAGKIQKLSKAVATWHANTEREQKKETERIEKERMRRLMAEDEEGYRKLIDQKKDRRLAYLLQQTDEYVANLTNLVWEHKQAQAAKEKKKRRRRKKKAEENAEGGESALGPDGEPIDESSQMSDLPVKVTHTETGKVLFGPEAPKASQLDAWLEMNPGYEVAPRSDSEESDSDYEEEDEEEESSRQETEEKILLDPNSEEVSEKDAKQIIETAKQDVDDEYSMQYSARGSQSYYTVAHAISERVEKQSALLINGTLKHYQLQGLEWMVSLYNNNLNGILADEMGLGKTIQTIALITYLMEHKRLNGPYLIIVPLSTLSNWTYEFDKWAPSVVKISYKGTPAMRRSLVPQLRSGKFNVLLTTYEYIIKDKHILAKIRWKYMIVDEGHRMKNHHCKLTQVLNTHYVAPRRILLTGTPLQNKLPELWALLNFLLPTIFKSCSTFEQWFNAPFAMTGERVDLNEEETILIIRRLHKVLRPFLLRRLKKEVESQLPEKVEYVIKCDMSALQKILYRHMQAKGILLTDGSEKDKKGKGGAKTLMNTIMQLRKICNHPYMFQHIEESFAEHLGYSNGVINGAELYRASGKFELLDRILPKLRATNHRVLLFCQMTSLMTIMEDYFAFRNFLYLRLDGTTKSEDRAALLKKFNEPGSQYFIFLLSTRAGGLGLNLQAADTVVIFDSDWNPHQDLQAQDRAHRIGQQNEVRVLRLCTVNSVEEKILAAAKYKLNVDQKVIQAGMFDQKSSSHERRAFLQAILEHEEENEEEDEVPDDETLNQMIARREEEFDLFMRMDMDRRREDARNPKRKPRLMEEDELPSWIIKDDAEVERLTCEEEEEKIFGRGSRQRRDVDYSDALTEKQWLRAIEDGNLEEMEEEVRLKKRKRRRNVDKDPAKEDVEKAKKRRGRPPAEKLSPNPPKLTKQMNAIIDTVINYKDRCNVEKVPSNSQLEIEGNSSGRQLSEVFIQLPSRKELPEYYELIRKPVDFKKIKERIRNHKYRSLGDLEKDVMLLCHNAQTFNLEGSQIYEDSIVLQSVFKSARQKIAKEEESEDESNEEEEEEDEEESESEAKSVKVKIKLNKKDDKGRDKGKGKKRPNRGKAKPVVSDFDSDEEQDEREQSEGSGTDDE
Experiment: MSD SMARCA2 degradation in NCI-H1299 cell line (24 h)
Assay type: cell-based
Parameters: HC: NCI-H1299 cells treated with DMSO; host or cells: NCI-H1299
Settings: NCI-H1299 cells, read-out: SMARCA2 MSD H1299 degradation 24 h: External Abs-DC50
Below: a set of entries, each annotated with reported DC50.

Examples with their reported DC50 follow.
| molecule | DC50 |
| --- | --- |
| Nc1nnc(-c2ccccc2O)cc1N1CCN(c2ccc(CNCCOCCCc3cccc4c3oc(=O)n4C3CCC(=O)NC3=O)cc2)CC1 (stereo not drawn) | 501 to 1000 nM |
| CN(CCCc1cnc(N2C3CCC2CN(c2cc(-c4ccccc4O)nnc2N)C3)nc1)Cc1cccc2c1n(C)c(=O)n2C1CCC(=O)NC1=O (stereo not drawn) | < 100 nM |

Reported DC50, molecule Cc1ncsc1-c1ccc(CNC(=O)[C@@H]2C[C@@H](O)CN2C(=O)[C@@H](NC(=O)CCCCCN2CCC(n3cc(-c4cc(-c5ccccc5O)nnc4N)cn3)CC2)C(C)(C)C)cc1 : ____
501 to 1000 nM
